// GI50 lookup, one value per entry
System: SK-MEL-5
assay-notes: NCI tumour cell line growth inhibition, 48 h
Calls of active or inactive are those of the source. Cut-off read from the data, not from the text of the source: active = GI50 up to about 1.1 µM and inactive = higher. *1 amine or outer side, *2 acyl side, *3 side chain or, on linkers, in order; H or OH if unused. Where a SMILES comes first, the peptide text is derived from it. The star is where a group is joined. γGlu = O=C(O)[CH](CCC(=O)[*:2])N[*:1]; NHOH = ON*
endpoint: GI50

compound: C1=N\c2ccc(cc2)-c2ccc(cc2)/N=C\c2ccc(cc2)OCc2cccc(n2)COc2ccc/1cc2
measurement-target: SK-MEL-5
endpoint: GI50
result: > 100 µM (inactive)
--
compound: N#CC12C(=O)N3C(=NC(c4ccco4)NC3c3ccco3)C1(C#N)C(c1ccco1)NC1=C2CCCC1 (centres undefined)
measurement-target: SK-MEL-5
endpoint: GI50
result: > 100 µM (inactive)
--
compound: CCCCON1C[C@H](OC(C)=O)C(OC(C)=O)[C@H](OC(C)=O)C1 (some centres undefined)
measurement-target: SK-MEL-5
endpoint: GI50
result: > 100 µM (inactive)
--
compound: COc1ccc2oc(S(=O)(=O)N3CC(CCl)c4ccc(N)cc43)cc2c1 (centres undefined)
measurement-target: SK-MEL-5
endpoint: GI50
result: 0.019 µM (active)
--
compound: Cc1cc(N(CCC#N)CCC#N)ccc1C(/N=N/c1ccc([N+](=O)[O-])cc1)=N\NC(=O)c1ccccc1
measurement-target: SK-MEL-5
endpoint: GI50
result: 26.4 µM (inactive)
--
compound: CN(C)/C=N/S(=O)(=O)c1nn2c(C=O)c(-c3cc4ccccc4oc3=O)nc2s1
measurement-target: SK-MEL-5
endpoint: GI50
result: 2.77 µM (inactive)
--
compound: CCCCCOc1ccc(/C=N\c2ccc(-c3ccc(/N=C\c4ccc(OCCCCC)cc4)c(OC)c3)cc2OC)cc1
measurement-target: SK-MEL-5
endpoint: GI50
result: > 100 µM (inactive)
--
compound: c1ccc(SCCCC(Sc2ccccc2)Sc2ccccc2)cc1
measurement-target: SK-MEL-5
endpoint: GI50
result: > 100 µM (inactive)
--
compound: CC(=O)N(CCc1ccccc1)C(C#N)c1ccccc1 (centres undefined)
measurement-target: SK-MEL-5
endpoint: GI50
result: > 100 µM (inactive)
--
compound: CCOC(=O)C(=CNC(=S)c1ccncc1)C(=O)OCC
measurement-target: SK-MEL-5
endpoint: GI50
result: > 100 µM (inactive)
--
compound: O=NN(Cc1ccc(Cl)cc1)C(C(=O)O)c1ccccc1 (centres undefined)
measurement-target: SK-MEL-5
endpoint: GI50
result: > 100 µM (inactive)
--
compound: CC(C)(C)c1cc(C(CO)OCCOCCO)cc(C(C)(C)C)c1O (centres undefined)
measurement-target: SK-MEL-5
endpoint: GI50
result: > 100 µM (inactive)
--
compound: Cc1nc2c(=O)[nH]c(=O)n(C)c2[nH]c1=O.c1ccncc1
measurement-target: SK-MEL-5
endpoint: GI50
result: > 100 µM (inactive)
--
compound: COc1ccc(Cc2cc(OC)c(OC)c(OC)c2)cc1
measurement-target: SK-MEL-5
endpoint: GI50
result: 0.167 µM (active)
--
compound: CN(C)CCNC(=O)c1cccc2nc(-c3ccccc3)oc12
measurement-target: SK-MEL-5
endpoint: GI50
result: 22.3 µM (inactive)
--
compound: COc1cccc(/C=N/n2c(Cc3ccc(Cl)cc3)n[nH]c2=O)c1
measurement-target: SK-MEL-5
endpoint: GI50
result: > 100 µM (inactive)
--
compound: Cc1ccsc1/C=N/Nc1ccc2ccccc2n1
measurement-target: SK-MEL-5
endpoint: GI50
result: 3.4 µM (inactive)
--
compound: CC(C)=C1C(=O)c2c(Cl)sc(Cl)c2C1=O
measurement-target: SK-MEL-5
endpoint: GI50
result: 93.3 µM (inactive)
--
compound: COc1cc2c(cc1OC)C13CCN4CC5CCOC6CC(=O)N2C1C6C5CC43 (centres undefined)
measurement-target: SK-MEL-5
endpoint: GI50
result: > 100 µM (inactive)
--
compound: CCOc1cccc(-c2cc(O)c3cc4c(cc3n2)OCO4)c1
measurement-target: SK-MEL-5
endpoint: GI50
result: 0.0505 µM (active)
--
compound: COc1cc(CC2c3cc(OC)c(OC)cc3CCN2C)ccc1O (centres undefined)
measurement-target: SK-MEL-5
endpoint: GI50
result: > 100 µM (inactive)
--
compound: O=CNc1ncn[nH]1
measurement-target: SK-MEL-5
endpoint: GI50
result: > 100 µM (inactive)
--
compound: C=C(C)C1Cc2c(cc(OC)c3c(=O)c4ccccc4n(C)c23)O1 (centres undefined)
measurement-target: SK-MEL-5
endpoint: GI50
result: > 100 µM (inactive)
--
compound: O=C(c1cc(Cl)cc(Cl)c1)N(Cc1cccnc1)C(=S)N(Cc1cccnc1)C(=O)c1cc(Cl)cc(Cl)c1
measurement-target: SK-MEL-5
endpoint: GI50
result: 23.3 µM (inactive)
--
compound: COCC(=O)[C@]1(O)Cc2c(O)c3c(c(O)c2[C@@H](OC2CC(N)C(O)C(C)O2)C1)C(=O)c1c(OC)cccc1C3=O (some centres undefined)
measurement-target: SK-MEL-5
endpoint: GI50
result: 0.0728 µM (active)
--
compound: Cc1nc(Cl)c(Cl)c(Cl)n1
measurement-target: SK-MEL-5
endpoint: GI50
result: 0.705 µM (active)
--
compound: Clc1nncc2sc(-c3ccccc3)nc12
measurement-target: SK-MEL-5
endpoint: GI50
result: 15.6 µM (inactive)
--
compound: Cc1ccccc1C(=O)c1ccccc1O
measurement-target: SK-MEL-5
endpoint: GI50
result: > 100 µM (inactive)
--
compound: COc1nc(C#CC(C)(C)C)nc(OC)n1
measurement-target: SK-MEL-5
endpoint: GI50
result: 16 µM (inactive)
--
compound: C/C(CN1C(=O)c2ccccc2C1=O)=N\NS(=O)(=O)c1ccc(Br)cc1
measurement-target: SK-MEL-5
endpoint: GI50
result: > 100 µM (inactive)
--
compound: CNC(=O)CCCNC(=O)CCCC(=O)OC
measurement-target: SK-MEL-5
endpoint: GI50
result: > 100 µM (inactive)
--
compound: CNC(=S)c1nnsc1N
measurement-target: SK-MEL-5
endpoint: GI50
result: 14 µM (inactive)
--
compound: Nc1ncnc2c1ncn2[C@@H]1O[C@H](C(=O)O)[C@@H](O)[C@H]1O [5'-CARBOXY ADENOSINE]
measurement-target: SK-MEL-5
endpoint: GI50
result: > 100 µM (inactive)
--
compound: CC(=O)[C@]1(O)Cc2c(O)c3c(c(O)c2C(OC2OC(C)C(O)C(O)C2F)C1)C(=O)c1ccccc1C3=O (some centres undefined)
measurement-target: SK-MEL-5
endpoint: GI50
result: 0.0516 µM (active)
--
compound: Cc1ccc(C2CC(c3ccc([N+](=O)[O-])cc3)=Nc3ccccc3S2)cc1 (centres undefined)
measurement-target: SK-MEL-5
endpoint: GI50
result: 17.1 µM (inactive)
--
compound: C=C(C)C(=O)OC1CC2(C)OC(=CC2=O)C(C)CC2OC(=O)C(=C)C12 (centres undefined)
measurement-target: SK-MEL-5
endpoint: GI50
result: 3.52 µM (inactive)
--
compound: CSc1n[n+]2c(s1)SCCC2
measurement-target: SK-MEL-5
endpoint: GI50
result: 46.5 µM (inactive)
--
compound: NC(CCC(=O)NC(CCC(=O)NO)C(=O)NCC(=O)O)C(=O)O (centres undefined) (γGlu-Glu(NHOH)-Gly-OH; configuration not given here)
measurement-target: SK-MEL-5
endpoint: GI50
result: > 100 µM (inactive)
--
compound: C#CCOCn1cnc2c(N)ncnc21
measurement-target: SK-MEL-5
endpoint: GI50
result: > 100 µM (inactive)
--
compound: CCCCCCCCCCCCC(=O)CCCCC(=O)O
measurement-target: SK-MEL-5
endpoint: GI50
result: 18.2 µM (inactive)
--
compound: Oc1ccc(-c2nc3ccc(F)cc3s2)cc1
measurement-target: SK-MEL-5
endpoint: GI50
result: 18 µM (inactive)
--
compound: CCOC(=O)C(Cc1ccc2c(c1)CCC2)(Cc1ccc2c(c1)CCC2)C(=O)OCC
measurement-target: SK-MEL-5
endpoint: GI50
result: 33.8 µM (inactive)
--
compound: O=C(CC(=O)Nc1cccc(C(=O)O)c1)Nc1cccc(C(=O)O)c1
measurement-target: SK-MEL-5
endpoint: GI50
result: > 100 µM (inactive)
--
compound: C=C1C(=O)OC2/C=C(\C)C3OC3/C=C(/C(=O)OC)C(OC(C)=O)C(OC(=O)C(C)(O)C(C)OC(C)=O)C12 (centres undefined)
measurement-target: SK-MEL-5
endpoint: GI50
result: 2.5 µM (inactive)
